Endpoint: IC50. System: PI3K α (Homo sapiens (Human), UniProt P42336). Items follow.
Sequence (P42336 whole entry): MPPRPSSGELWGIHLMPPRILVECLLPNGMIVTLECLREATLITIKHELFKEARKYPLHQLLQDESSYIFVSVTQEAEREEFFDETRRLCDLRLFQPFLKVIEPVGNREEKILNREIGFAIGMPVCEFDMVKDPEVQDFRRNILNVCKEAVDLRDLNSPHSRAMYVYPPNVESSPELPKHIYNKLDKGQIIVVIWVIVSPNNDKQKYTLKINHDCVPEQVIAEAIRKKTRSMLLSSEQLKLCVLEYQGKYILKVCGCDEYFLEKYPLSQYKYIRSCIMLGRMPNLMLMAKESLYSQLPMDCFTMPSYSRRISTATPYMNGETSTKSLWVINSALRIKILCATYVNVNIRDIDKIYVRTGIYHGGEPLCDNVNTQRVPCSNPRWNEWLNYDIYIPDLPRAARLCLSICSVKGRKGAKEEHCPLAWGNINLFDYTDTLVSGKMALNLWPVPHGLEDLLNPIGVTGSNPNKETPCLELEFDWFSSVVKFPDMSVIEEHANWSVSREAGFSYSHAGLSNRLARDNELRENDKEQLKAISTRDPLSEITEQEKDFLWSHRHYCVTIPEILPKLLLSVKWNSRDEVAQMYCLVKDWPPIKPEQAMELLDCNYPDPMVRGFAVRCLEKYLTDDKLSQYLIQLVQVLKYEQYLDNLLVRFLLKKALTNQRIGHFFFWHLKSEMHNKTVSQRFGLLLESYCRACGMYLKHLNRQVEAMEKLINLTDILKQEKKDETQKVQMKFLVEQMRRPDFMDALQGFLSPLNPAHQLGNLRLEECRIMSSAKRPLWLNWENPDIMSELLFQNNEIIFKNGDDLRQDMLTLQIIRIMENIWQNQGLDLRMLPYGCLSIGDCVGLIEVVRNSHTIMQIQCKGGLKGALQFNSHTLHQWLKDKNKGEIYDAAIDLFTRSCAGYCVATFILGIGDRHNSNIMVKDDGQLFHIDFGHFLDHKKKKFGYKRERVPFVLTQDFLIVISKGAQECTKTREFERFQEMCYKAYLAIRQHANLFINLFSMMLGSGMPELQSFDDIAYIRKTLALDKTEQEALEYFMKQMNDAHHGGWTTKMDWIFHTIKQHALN
Sequence (P27986 whole entry partner): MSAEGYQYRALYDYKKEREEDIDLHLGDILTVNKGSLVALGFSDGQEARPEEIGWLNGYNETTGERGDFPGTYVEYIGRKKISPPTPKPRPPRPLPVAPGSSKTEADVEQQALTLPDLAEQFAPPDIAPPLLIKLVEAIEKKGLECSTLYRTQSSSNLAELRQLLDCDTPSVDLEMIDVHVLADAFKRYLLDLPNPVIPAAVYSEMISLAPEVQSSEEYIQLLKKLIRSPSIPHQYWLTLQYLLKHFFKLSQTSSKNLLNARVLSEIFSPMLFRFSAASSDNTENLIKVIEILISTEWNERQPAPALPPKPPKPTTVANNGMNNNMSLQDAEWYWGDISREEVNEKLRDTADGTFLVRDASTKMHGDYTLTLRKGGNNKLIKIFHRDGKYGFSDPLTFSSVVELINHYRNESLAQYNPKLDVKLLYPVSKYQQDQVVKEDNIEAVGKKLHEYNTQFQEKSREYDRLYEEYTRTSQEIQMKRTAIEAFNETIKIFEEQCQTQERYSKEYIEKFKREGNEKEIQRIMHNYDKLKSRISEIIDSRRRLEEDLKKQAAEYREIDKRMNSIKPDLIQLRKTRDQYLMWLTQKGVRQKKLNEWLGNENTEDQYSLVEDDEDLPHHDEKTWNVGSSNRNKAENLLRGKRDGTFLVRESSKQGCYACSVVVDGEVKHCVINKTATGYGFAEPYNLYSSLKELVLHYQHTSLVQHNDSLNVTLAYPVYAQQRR

SMILES DATA	IC50
CCOC(=O)N1CC=C(c2cnc3ccc(-c4ccc5oc(N)nc5c4)nc3n2)CC1	< 100 nM
Nc1nc2cc(-c3ccc4ncc(N5CCN(C(=O)C6(N)CC6)CC5)nc4n3)ccc2o1	< 100 nM
CC(=O)Nc1nc2ccc(-c3nc(N4CCOCC4)c4sc(CN5CCN(S(C)(=O)=O)CC5)cc4n3)cc2s1	> 10000 nM
C[C@@H]1CN(c2cnc3ccc(-c4ccc5oc(N)nc5c4)nc3c2)CCN1	< 100 nM
Nc1cn2cc(-c3ccc4nc(N)oc4c3)ccc2n1	> 10000 nM

src = patent US9682141B2
